Hi there, I'd appreciate the recorded pIC50 for every entry that follows.
Target: human TREK-1 (Homo sapiens, UniProt O95069)
Construct: expressed in transfected cells
Sequence (O95069 1-426): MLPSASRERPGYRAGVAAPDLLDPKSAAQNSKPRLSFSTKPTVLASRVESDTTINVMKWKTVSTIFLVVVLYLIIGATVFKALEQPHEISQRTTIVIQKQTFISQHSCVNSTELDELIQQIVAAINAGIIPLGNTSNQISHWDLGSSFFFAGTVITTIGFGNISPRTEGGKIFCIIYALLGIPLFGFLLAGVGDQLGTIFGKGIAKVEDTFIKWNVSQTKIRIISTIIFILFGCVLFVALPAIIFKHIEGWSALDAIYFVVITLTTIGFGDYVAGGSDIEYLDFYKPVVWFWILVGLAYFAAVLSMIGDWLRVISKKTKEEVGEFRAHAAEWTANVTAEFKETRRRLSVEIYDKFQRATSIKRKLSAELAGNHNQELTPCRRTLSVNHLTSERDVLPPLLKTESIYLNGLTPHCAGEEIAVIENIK
Test: TREK-1 Thallium (Tl+) flux assay, Method 1
Format: cell-based
Conditions: TREK-1 Thallium (Tl+) flux assay; no *^12 (Method 2) mark on these rows
Answer as the number alone; pIC50 is minus log10 of concentration in mol/L.

Quick note, pIC50 for Cc1cc(C#Cc2ccccc2)cnc1NC(=O)c1c(Cl)cnn1CC1CN(C(=O)C2CC2)C1 [Compound 274] landed at 6.33

Quick note, pIC50 for CC(C)(C)OC(=O)N1CCC(CCn2ncc(Cl)c2C(=O)Nc2ncc(C#Cc3ccccc3)cc2F)CC1 [Compound 290] landed at 6.29

Quick note, pIC50 for Cc1cc(C#Cc2ccccc2F)cnc1NC(=O)c1c(Cl)cnn1CCC1CCN(C(=O)C2CC2)CC1 [Compound 226] landed at 6.46

Quick note, pIC50 for CC(C)(C)OC(=O)N[C@H]1C[C@H](n2ncc(Cl)c2C(=O)Nc2ncc(C#Cc3ccccc3)cc2F)C1 [Compound 214] landed at 6.48

Quick note, pIC50 for Cc1cc(C#Cc2ccccc2)cc(F)c1NC(=O)c1c(Cl)cnn1C[C@@H]1CCOC1 [Compound 200] landed at 6.51

Quick note, pIC50 for Cc1cc(C#Cc2ccccc2)cnc1NC(=O)c1c(Cl)cnn1C1CCCOC1 (centres unmarked) [Compound 327] landed at 6.19

Quick note, pIC50 for CC(C)(C)C(=O)N1CCC(n2ncc(Cl)c2C(=O)Nc2ncc(C#Cc3cccs3)cc2F)CC1 [Compound 247] landed at 6.41

Quick note, pIC50 for Cc1cc(C#Cc2ccccc2)cnc1NC(=O)c1c(Cl)cnn1C1CCOC1 (centres unmarked) [Compound 306] landed at 6.24

Where do these numbers come from? They come from patent US20240182445A1.
